# Read-out: Vascular cell adhesion molecule 1 (VCAM1), VCAM1 (gene 7412)
# measurement description: BSK_CASM3C_VCAM1: BioMAP Diversity Plus: CASM3C Assay for Vascular cell adhesion molecule 1 (VCAM1) Biomarker Activity (AID 2283055);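 further: VCAM-1 protein level quantified by ELISA on the cells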
# condition context: primary human coronary artery smooth muscle cells; actives raise or lower the signal
Calls of active or inactive are those of the source. How the source made its calls: active means hit-call score of the fitted dose curve at least 0.9, where 1 is the maximum; inactive means score below 0.9.
Please reply with one of these outcomes: active, inactive

Recorded test outcome, item `OC(Cn1cncn1)(Cn1cncn1)c1ccc(F)cc1F`
inactive

Recorded test outcome, item `Cc1ncc([C@@H](CCCCCCc2ccc3c(n2)NCCC3)CC(=O)O)cn1`
inactive

Recorded test outcome, item FC(F)C(F)(F)COCC1CO1 (configuration not stated)
inactive

Recorded test outcome, item CCCCC(CC)C(=O)OCCOCCOCCOC(=O)C(CC)CCCC (configuration not stated)
inactive

Recorded test outcome, item CC(C)CCCCCCOC(=O)C1CCCCC1C(=O)OCCCCCCC(C)C (configuration not stated)
inactive

Recorded test outcome, item `CCCCCCCCCC`
inactive

Recorded test outcome, item `CNC(C)=O`
inactive

Recorded test outcome, item `OCc1c[nH]c2ccccc12`
inactive

Recorded test outcome, item `Cn1c(=O)c2[nH]cnc2n(C)c1=O`
inactive

Recorded test outcome, item `O=C(NO)C1(NS(=O)(=O)c2ccc(Oc3ccc(F)cc3)cc2)CCOCC1`
inactive

Recorded test outcome, item `COc1cc2c(c(OC)c1OC)-c1ccc(OC)c(=O)cc1[C@@H](NC(C)=O)CC2`
active

Recorded test outcome, item `CC[C@H](C)C(=O)O[C@H]1C[C@H](O)C=C2C=C[C@H](C)[C@H](CC[C@@H](O)C[C@@H](O)CC(=O)O)[C@H]21`
inactive

Recorded test outcome, item `O=c1[nH]cnc2c1ncn2[C@H]1CC[C@@H](CO)O1`
inactive

Recorded test outcome, item `CC(C)C(=O)Nc1ccc([N+](=O)[O-])c(C(F)(F)F)c1`
inactive

Recorded test outcome, item `Cn1cc[nH]c1=S`
inactive

Recorded test outcome, item `Cc1ccc(S(=O)(=O)NC(=O)NN2CCCCCC2)cc1`
inactive

Recorded test outcome, item `S=P(N1CC1)(N1CC1)N1CC1`
inactive

Recorded test outcome, item `CCCCCOC(C)=O`
inactive

Recorded test outcome, item `CCc1cccc(CC)c1N`
inactive

Recorded test outcome, item `C[C@]12C=CC(=O)C=C1CC[C@H]1[C@@H]3C[C@@H](O)[C@](O)(C(=O)CO)[C@@]3(C)C[C@H](O)[C@@]12F`
inactive

Recorded test outcome, item `NC(N)=O`
inactive

Recorded test outcome, item `OC(O)(C(F)C(O)(O)C(F)(F)F)C(F)(F)F`
inactive

Recorded test outcome, item `Cc1nccn1-c1ccc(Sc2cccc(C3(C(N)=O)CCOCC3)c2)cc1`
active

Recorded test outcome, item CCCCCCCC1CCC(=O)O1 (configuration not stated)
inactive

Recorded test outcome, item `NC(=O)N1c2ccccc2C=Cc2ccccc21`
inactive

Recorded test outcome, item CC(C)CC(C)O (configuration not stated)
inactive

Recorded test outcome, item `CCCCOC(=O)c1ccccc1`
inactive

###

# Read-out: Pro-epidermal growth factor (Homo sapiens) (UniProt P01133)
# measurement description: LTEA_HepaRG_EGF: Life Technologies and Expression Analysis (LTEA) Assay for Epidermal growth factor (EGF) using HepaRG (AID 2283489)
# condition context: mRNA level, 48 h; actives raise or lower the signal
Calls of active or inactive are those of the source. How the source made its calls: active means hit-call score of the fitted dose curve at least 0.9, where 1 is the maximum; inactive means score below 0.9.
Please reply with one of these outcomes: 1 (active), 0 (inactive)

Recorded test outcome, item `CC(C)C(=O)Nc1ccc([N+](=O)[O-])c(C(F)(F)F)c1`
1

Recorded test outcome, item `OC(CCl)CCl`
0

Recorded test outcome, item `NNC(=O)c1ccncc1`
0

Recorded test outcome, item CC(C)CC(C)O (stereo not given)
0

Recorded test outcome, item `O=C(O)c1cccc(C(=O)O)c1`
0

Recorded test outcome, item `CCCC(CCC)C(=O)O`
0

Recorded test outcome, item `NC(N)=O`
0

Recorded test outcome, item `OC(Cn1cncn1)(Cn1cncn1)c1ccc(F)cc1F`
0

Recorded test outcome, item `NC(=O)N1c2ccccc2C=Cc2ccccc21`
0

Recorded test outcome, item `NC(=O)N(O)[C@@H]1COc2cc(OCc3ccccc3)ccc21`
0
